IC50 values recorded for Vascular endothelial growth factor receptor 2 (Homo sapiens, UniProt P35968)
reported-endpoint: IC50 (nM)

Solved cases (2 shown):
COc1ccc(Cl)c(Nc2ncnc3cc(OCCCN4CCN(C)CC4)cc(OC(C)C)c23)n1 680
COc1ccc(Cl)c(Nc2ncnc3cc(OCCN4CCN(C)CC4)cc(OC(C)C)c23)n1 570

[a] COc1ccc(Cl)c(Nc2ncnc3cc(OCCCN4CCOCC4)cc(OC4CCOCC4)c23)n1
[b] COc1ccc(Cl)c(Nc2ncnc3cc(OCCN4CCOCC4)cc(OC(C)C)c23)n1
[c] COc1ccc(Cl)c(Nc2ncnc3cc(OCCCN4CCOCC4)cc(OC4CCOCC4)c23)c1
**Query** Rank items: key IC50, increasing. // format: requested-order list of labels
**Result** c, b, a
(c: 400 nM, b: 2900 nM, a: 5500 nM)

* * *

pIC50: −log10 of the molar value.
UniProt P12931 pIC50 data
Sequence (P12931 2-536 limits assumed): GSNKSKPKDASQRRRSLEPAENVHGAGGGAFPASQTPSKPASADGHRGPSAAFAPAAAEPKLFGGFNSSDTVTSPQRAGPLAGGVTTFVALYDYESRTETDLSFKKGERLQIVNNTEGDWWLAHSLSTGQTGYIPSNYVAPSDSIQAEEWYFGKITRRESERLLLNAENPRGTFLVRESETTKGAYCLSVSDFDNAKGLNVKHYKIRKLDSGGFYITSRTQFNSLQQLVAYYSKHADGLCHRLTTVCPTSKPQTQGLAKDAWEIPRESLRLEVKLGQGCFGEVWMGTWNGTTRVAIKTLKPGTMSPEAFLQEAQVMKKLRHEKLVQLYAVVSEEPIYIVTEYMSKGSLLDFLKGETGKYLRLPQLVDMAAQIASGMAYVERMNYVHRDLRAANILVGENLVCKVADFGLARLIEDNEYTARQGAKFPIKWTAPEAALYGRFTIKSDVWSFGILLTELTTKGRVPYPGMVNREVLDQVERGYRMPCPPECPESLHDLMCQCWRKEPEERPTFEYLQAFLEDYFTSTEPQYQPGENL
reported-endpoint: pIC50

COc1ncc(Cl)c(Nc2ncnc3cc(OCCN4CCN(C(C)=O)CC4)cc(OC(C)C)c23)n1 7.82

[a] COc1ccc(Cl)c(Nc2ncnc3cc(OCCN4CCCC4)cc(OC(C)C)c23)n1
[b] COc1ccc(Cl)c(Nc2ncnc3cc(OCCCN4CCCC4)cc(OC(C)C)c23)n1
[c] COc1ccc(Cl)c(Nc2ncnc3cc(OCCCN4CCOCC4)cc(OC(C)C)c23)c1
**Query** Put the compounds in ascending order of pIC50. Your task in answering is to list the labels in the requested order.
**Result** c, a, b

* * *

assay-remarks: Solubility in phosphate buffer at pH 7.4
Type: physicochemical
reported-endpoint: solubility (µM)
Field format: number, assumed µM, no unit text.

**Query** Quick check: solubility of COc1ccc(Cl)c(Nc2ncnc3cc(OCCN4CCN(C(C)=O)CC4)cc(OC(C)C)c23)n1 ?
**Result** 43

* * *

assay-remarks: Cmax in rat administered with 2 mg/kg, po
Type: ADME, organism-based
Design: dose 2 mg/kg, route oral
cond: in vivo
reported-endpoint: Cmax (nM)

COc1ccc(Cl)c(Nc2ncnc3cc(OCCN4CCN(C(C)=O)CC4)cc(OC(C)C)c23)n1 310
COc1cnc(Cl)c(Nc2ncnc3cc(OCCN4CCN(C(C)=O)CC4)cc(OC(C)C)c23)n1 420

* * *

assay-remarks: Percent of unbound ligand in rat plasma
Assay type: ADME, organism-based
reported-endpoint: fraction unbound
// return just the number, without any unit appended

**Query** If you can, please state the reported fraction unbound value of COc1ccc(Cl)c(Nc2ncnc3cc(OCCN4CCN(C(C)=O)CC4)cc(OC(C)C)c23)n1 .
**Result** 0.08

* * *

assayed-system: UniProtKB P35968
reported-endpoint: IC50 (nM)

[1] COc1ccc(Cl)c(Nc2ncnc3cc(OCCN4CCN(C(C)=O)CC4)cc(OC(C)C)c23)n1
[2] COc1ccc(Cl)c(Nc2ncnc3cc(OCCCN4CCCC4)cc(OC(C)C)c23)n1
[3] COc1cnc(Cl)c(Nc2ncnc3cc(OCCN4CCN(C(C)=O)CC4)cc(OC(C)C)c23)n1
[4] COc1ccc(Cl)c(Nc2ncnc3cc(OCCCN4CCOCC4)cc(OC(C)C)c23)c1
**Query** List these items ordered by IC50, big to small. Answer with the labels in sequence, matching the requested order.
**Result** 1, 3, 2, 4
